- assay-protocol: yeast display, Sf9 membrane polyspecificity reagent, FACS + sequencing; frameworks hold sequencing errors

{"columns": ["residue-codes", "polyreactivity (PSR sort gate)"],
 "data": [
  ["QVQLVESGGGLVQAGGRLRLSCAASGSTFVKNTMGWYIQPPGKERELVAAISSRGGSTYYADSVKGRFTISRDNEKNTVYFQMNSLKPEDTAVYYCAKDGRVSRDFDYWGQGTQVTVSS", "low polyreactivity"],
  ["QVQLVESGGGLVQAGGSLRLSCAASGRTFKGNAMGWYRQAPGKEIELVAAISKSGGRTYYADSVKGRFTISRDNAKNTVYLQMNSLKPEDTAVYYCAVDVGPTKVRFGYLGQGTQVTVSS", "high polyreactivity"],
  ["QVQLVESGGGLVQAGGSLRLSCAASGSTFASYAMGWYRQAPGKERELVAAIRWRGGTTYYADSVKGRFTISRDNAKNTVYLQMNSLKPDDTAVYYCNADRYYLYYYWGQGTQVTVSS", "low polyreactivity"],
  ["QVQLVESGGGLVQAGGSLRLSSAASGNIFPAYPMGWYRQAPGKERELVAAISKSGGRTYYADSVKGRFTISRDNAKNTVYLQMNSLKPEDTAVYYALLTVLRAVPYSVRYDYWGQGTQVTVSS", "high polyreactivity"],
  ["QVQLVESGGGLVQAGGSLRLSCAASGRTFTTNAMGWYRQAPGKERELVAAITIGDDTYYADSVKGRFTISRDNAKNTVYLQMNSLKPEDTAVYYCNVDGRSDGDDYWGQGTQVTVSS", "low polyreactivity"]
]}

---

- assay-protocol: yeast display, Sf9 membrane polyspecificity reagent, FACS + sequencing; frameworks hold sequencing errors
experimental-endpoint: polyreactivity (PSR sort gate)

{"columns": ["residue-codes", "experimental-endpoint", "experimental-result"],
 "data": [
  ["QVQLVESGGGLVQAGGSLRLSCAASGSIFNGYAMGWYRQSPGKERELVAVISGSGGSTYYADSVKGRFTISRDNAKNTVYLQMNSLKPEDTAVYYCAAKPGYYGYWGQGTQVTVSS", "polyreactivity (PSR sort gate)", "high polyreactivity"],
  ["QVQLVESGGGLVQAGGSLRLSCAASGRTFGPYAMGWYRQAPGKERELVAVISGRGTSTYYADSVKGRFTISRDNAKNTVYLQMNSMKPEDTAVYYCNADYGSWYWGFDYWGQGTQVTVSS", "polyreactivity (PSR sort gate)", "low polyreactivity"],
  ["QVQLVESGGGLVQAGGSLSLSCAASGSNFNVYVMGWYRQAPGKERELVAAITYRGASTYYADSVKGRFTFSRDNAKNTVYLQMNSLKPEDTAVYYCAARYGYRSVYRSYNSRPYDYWGQGTQVTVSS", "polyreactivity (PSR sort gate)", "high polyreactivity"],
  ["QVQLVESGGGLVQAGGSLRLSCAASGFTFGSYAMGWYRQAPGKERELVAAITASGGSTYYADSVKGRFTISRDNPKNTVYLQMNSLKPEDTAVYYCNKRWTYKWDDYWGQGTQVTVSS", "polyreactivity (PSR sort gate)", "high polyreactivity"],
  ["QVQLVESGGGLVQAGGSLRLSCAASGLTFYRYAMGWYRQSPGKERELVAAISRGGTSTYYADSVKGRFTISRDNAKNTVYLQMSSLKPEDTAVYYCARLVKPYNYGRYGYWGQGTQVTVSS", "polyreactivity (PSR sort gate)", "high polyreactivity"],
  ["QVQLVESGGGLVQARGSLRLSSAASGSTFVVNAMGWYRQAPGKERELVAAITQSGGSTFYADSVKGRFTISRVNAKNTVYLQMNSLQAEDTAVYYWGQGTQVTVSS", "polyreactivity (PSR sort gate)", "low polyreactivity"],
  ["QVQRVESRGGLVQAGGSLRLTCAASGRTFWRYVMGWYRQAPGKERELVATISSGGSTNYAYSVKGRFTISRDNAKNTVYLQMNSLKPEDTAVYYSAAYIYDGVWVYPYYPYDYWGQGTQVTVSS", "polyreactivity (PSR sort gate)", "low polyreactivity"],
  ["QVQLVESGGGLVQAGGSLRLSCAASGSTFRWYTMGWYRQAPGKERELVAAINQSGSRTYYADSVKGRFTISRDNAKNTVYLQMNSLKPEDTAGYYCNAKSYKSPHTYYYWGQGTQVTVSS", "polyreactivity (PSR sort gate)", "high polyreactivity"],
  ["QVQLVESGGGLVQAGGSLRLSCAASGSIFGGYAMGWYRQAPGKERELVARITDRGGSTDYADSVKGRFTISRDNAKNTVYLQMNSLKPEDTAVYYCAKRGDRYEKRPRDYWGQGTQVTVSS", "polyreactivity (PSR sort gate)", "low polyreactivity"],
  ["QVQLVESGGGLVQAGGSLRLSCAASGSIFYVYVMGWYRQAPGKERELVAAIDTGGGDTYYADSVKGRFTISRDNAKNTVYLQMNSLKPEDTAVYYCSTSGPQYYSRNFDYWGQGTQVTVSS", "polyreactivity (PSR sort gate)", "low polyreactivity"],
  ["QVQHVESGGGLVQAGGSLRLSCAASGLIFYYYDMGWYRQPPGKERELVAAISYNGGTTYYSDSVKGRFTISRDNAKNTVYLQMNSLKPEDTAVYYCASEQLVSGYDYWGQGTQVTVSS", "polyreactivity (PSR sort gate)", "low polyreactivity"],
  ["QVQLVESGGVLVQAGGSLRLSCAASGITFPDYDMGWYIHATGKERELVAAITYRSGSTYYADSVKGRFTISRDNAKNTVFLQMNCLKREDTAVYYCAADWRTKGYDSLGQGTQVTVSS", "polyreactivity (PSR sort gate)", "high polyreactivity"],
  ["QVQLVESGGGLVQAGGSLRLICAASGYTFPYAMGWYRQAPGKERELVAAISRSGASTYYADSVKGRFTISRDNAKNTVYLQMNSLKPEDTAVYYCATRRVYSTRVKFYYWGQGTQVTVSS", "polyreactivity (PSR sort gate)", "high polyreactivity"]
]}
